Tested on: L1210
protocol_description: Antitumor activity against mouse L1210 cells allografted in BDF1 mouse assessed as increase in life span at 8 mg/kg, ip qd for 3 days relative to control
Assay type: functional
assay_conditions: route intraperitoneal
Param label: returns label 1 when Activity < 400%, returns label 0 otherwise, including exact equality.

Worked examples, 3 molecules total:
Identify whether the molecule `O=NN(CCCl)C(=O)N[C@@H]1OC[C@@H](O)[C@H](O)[C@H]1O` records Activity below 400%. label 0

Identify whether the molecule `O=NN(CCCl)C(=O)N[C@@H]1O[C@H](CO)[C@@H](O)[C@H](O)[C@@H]1O` records Activity below 400%. label 1

Identify whether the molecule `O=NN(CCCl)C(=O)N[C@@H]1O[C@H](CO)[C@@H](O[C@@H]2O[C@H](CO)[C@@H](O)[C@H](O)[C@H]2O)[C@H](O)[C@H]1O` records Activity below 400%. label 0

Attention now shifts to the item below.
Identify whether the molecule `O=NN(CCCl)C(=O)N[C@@H]1O[C@H](CO)[C@@H](O)[C@H](O)[C@H]1O` records Activity below 400%. label 0
